Quick reference: pKi of the listed items.
# assay-system: ROCK1 (Homo sapiens (Human), UniProt Q13464)
# Sequence (Q13464 2-1354 limits assumed): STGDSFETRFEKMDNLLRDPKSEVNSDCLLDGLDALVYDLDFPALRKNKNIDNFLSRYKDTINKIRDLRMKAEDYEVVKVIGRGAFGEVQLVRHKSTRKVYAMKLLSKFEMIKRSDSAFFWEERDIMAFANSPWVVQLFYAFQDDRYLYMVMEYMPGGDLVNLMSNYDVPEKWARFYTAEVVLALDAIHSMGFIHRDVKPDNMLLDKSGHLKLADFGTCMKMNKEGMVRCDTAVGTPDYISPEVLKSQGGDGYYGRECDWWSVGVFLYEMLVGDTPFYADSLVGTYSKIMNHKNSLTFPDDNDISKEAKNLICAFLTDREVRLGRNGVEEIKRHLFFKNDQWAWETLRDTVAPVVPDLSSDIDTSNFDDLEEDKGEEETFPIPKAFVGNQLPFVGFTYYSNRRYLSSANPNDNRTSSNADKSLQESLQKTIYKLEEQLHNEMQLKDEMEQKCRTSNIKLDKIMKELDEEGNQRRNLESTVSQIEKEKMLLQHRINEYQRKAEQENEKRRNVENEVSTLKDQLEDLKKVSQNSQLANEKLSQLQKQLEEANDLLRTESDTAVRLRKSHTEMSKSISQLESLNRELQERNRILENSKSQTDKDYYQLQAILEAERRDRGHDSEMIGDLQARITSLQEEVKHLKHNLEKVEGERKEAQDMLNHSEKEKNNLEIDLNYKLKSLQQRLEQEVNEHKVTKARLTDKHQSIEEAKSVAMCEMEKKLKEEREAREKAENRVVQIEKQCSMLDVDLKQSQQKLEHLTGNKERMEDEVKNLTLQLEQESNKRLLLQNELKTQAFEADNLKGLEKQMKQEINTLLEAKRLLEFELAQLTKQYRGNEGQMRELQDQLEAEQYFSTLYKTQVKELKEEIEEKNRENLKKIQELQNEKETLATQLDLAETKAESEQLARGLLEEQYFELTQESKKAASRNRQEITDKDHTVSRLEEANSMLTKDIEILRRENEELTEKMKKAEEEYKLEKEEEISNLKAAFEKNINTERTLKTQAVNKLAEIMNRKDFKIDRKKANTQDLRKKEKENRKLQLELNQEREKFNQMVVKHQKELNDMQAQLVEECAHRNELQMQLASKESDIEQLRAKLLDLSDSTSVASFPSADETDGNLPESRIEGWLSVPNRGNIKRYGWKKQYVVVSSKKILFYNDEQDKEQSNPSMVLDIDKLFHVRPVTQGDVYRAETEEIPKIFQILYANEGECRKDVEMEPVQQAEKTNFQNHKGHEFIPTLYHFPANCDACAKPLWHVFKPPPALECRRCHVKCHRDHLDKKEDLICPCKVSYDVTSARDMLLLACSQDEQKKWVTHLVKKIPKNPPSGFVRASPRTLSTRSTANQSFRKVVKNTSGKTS
# test-parameters: read-out: ROCK1 Average Ki; 1 μM ATP
pKi: −log10 of the molar value.

molecule	assay-system	pKi
CN[C@H]1CCCN(c2ccnc3[nH]cc(-c4ccc(F)cn4)c23)C1 [Example E51]	ROCK1 (Homo sapiens (Human), UniProt Q13464)	5.05
c1ncc(-c2c[nH]c3nccc(NCC4CCNCC4)c23)cn1 [Example E102]	ROCK1 (Homo sapiens (Human), UniProt Q13464)	7.42
c1ncc(-c2c[nH]c3nccc(O[C@H]4CCCNC4)c23)cn1 [Example E222]	ROCK1 (Homo sapiens (Human), UniProt Q13464)	4.29
CN[C@H]1CCCN(c2ccnc3[nH]cc(-c4cccnc4)c23)C1 [Example E53]	ROCK1 (Homo sapiens (Human), UniProt Q13464)	4.30
CCN1CCCC[C@]12CCCN(c1ccnc3[nH]cc(-c4cncnc4)c13)C2 [Example E208]	ROCK1 (Homo sapiens (Human), UniProt Q13464)	5.92

====

Recorded below: pKi, system kinase targets listed in tables 3 and 4 (Homo sapiens).
pKi: −log10 of the molar value.
readout-label: pKi

substance-smiles	numeric-result
c1csc(-c2c[nH]c3nccc(N4CCC[C@@]5(CCCCN5)C4)c23)n1	6.60
c1cc(-c2c[nH]c3nccc(N4CCC[C@@]5(CCCCN5)C4)c23)ncn1	7.27

====

# assay-system: ROCK1 (Homo sapiens (Human), UniProt Q13464)
# test-parameters: read-out: ROCK1 Average Ki; 1 μM ATP

compound	Ki, µM
c1csc(-c2c[nH]c3nccc(N4CCC5(CCCN5)C4)c23)n1 (stereo not drawn)	0.239
O[C@H]1CCCN(c2ccnc3[nH]cc(-c4cncnc4)c23)C1	0.567
Cc1cnc(-c2c[nH]c3nccc(N4CCC5(CCN5)C4)c23)s1 (stereo not drawn)	100
Cc1cnc(-c2c[nH]c3nccc(N4CCC[C@]5(CCCCN5)C4)c23)s1	100
CN[C@H]1CCCN(c2ccnc3[nH]cc(-c4cncc(F)c4)c23)C1	2.05
Clc1cncc(-c2c[nH]c3nccc(N4CCCCC4)c23)c1	2.15
Cc1[nH]ncc1-c1c[nH]c2nccc(N3CCCCC3)c12	0.303
N[C@@H]1CCCN(c2ccnc3[nH]cc(-c4cncnc4)c23)C1	0.166
CNCC1CCCN(c2ccnc3[nH]cc(-c4cncnc4)c23)C1 (stereo not drawn)	0.148

====

# measurement-notes: Plasma protein binding
# Format: in vitro ADME
# test-parameters: plasma
readout-label: fraction unbound

compound	numeric-result
c1cc(-c2c[nH]c3nccc(N4CCC[C@@]5(CCCCN5)C4)c23)ncn1 [Example E117]	0.727

====

# assay-system: MRCKβ (Homo sapiens (Human))
# measurement-notes: MRCKβ cellular assay (pMLC T18/S19 immunoblot, MDA-MB-231 cells with doxycycline inducible kinase domain)
# Type: cell-based
readout-label: IC50 (nM)

molecule	readout-label	unit-descriptor	numeric-result
c1csc(-c2c[nH]c3nccc(N4CCC5(CCCCN5)C4)c23)n1 (stereo not shown)	IC50	nM	218
CCN1CCCCC12CCCN(c1ccnc3[nH]cc(C#N)c13)C2 (stereo not shown)	IC50	nM	952
c1csc(-c2c[nH]c3nccc(N4CC[C@@]5(CCCN5)C4)c23)n1	IC50	nM	787
c1cc(N2CCC3(CCCCN3)C2)c2c(-c3ncsn3)c[nH]c2n1 (stereo not shown)	IC50	nM	729
c1csc(-c2c[nH]c3nccc(N4CC[C@@]5(CCCCN5)C4)c23)n1	IC50	nM	108
c1cc(N2CCC3(CCCN3)C2)c2c(-c3ccsn3)c[nH]c2n1 (stereo not shown)	IC50	nM	457
N#Cc1c[nH]c2nccc(N3CCC[C@@]4(CCCCN4)C3)c12	IC50	nM	782

====

# assay-system: UniProtKB Q9Y5S2
# measurement-notes: MRCKβ kinase assay (IMAP fluorescence polarization)
# Format: biochemical
# test-parameters: 1 μM ATP; read-out: MRCK-B Average Ki
Ki by entry:

substance-smiles	Ki / nM
c1cc(N2CCCCC2)c2c(-c3cn[nH]c3)c[nH]c2n1	6.03
c1ncc(-c2c[nH]c3nccc(N4CCC[C@]5(CCCCN5)C4)c23)cn1	8.33
c1cc(-c2c[nH]c3nccc(N4CCCCC4)c23)cnn1	9.4
c1ncc(-c2c[nH]c3nccc(NCC4CCNCC4)c23)cn1	13.9
CCN[C@H]1CCCN(c2ccnc3[nH]cc(-c4cnn(C)c4)c23)C1	8.51

====

The entries below come with measured pKi values attached.
# assay-system: MRCKα (Homo sapiens (Human))
# Sequence (Q5VT25 whole entry): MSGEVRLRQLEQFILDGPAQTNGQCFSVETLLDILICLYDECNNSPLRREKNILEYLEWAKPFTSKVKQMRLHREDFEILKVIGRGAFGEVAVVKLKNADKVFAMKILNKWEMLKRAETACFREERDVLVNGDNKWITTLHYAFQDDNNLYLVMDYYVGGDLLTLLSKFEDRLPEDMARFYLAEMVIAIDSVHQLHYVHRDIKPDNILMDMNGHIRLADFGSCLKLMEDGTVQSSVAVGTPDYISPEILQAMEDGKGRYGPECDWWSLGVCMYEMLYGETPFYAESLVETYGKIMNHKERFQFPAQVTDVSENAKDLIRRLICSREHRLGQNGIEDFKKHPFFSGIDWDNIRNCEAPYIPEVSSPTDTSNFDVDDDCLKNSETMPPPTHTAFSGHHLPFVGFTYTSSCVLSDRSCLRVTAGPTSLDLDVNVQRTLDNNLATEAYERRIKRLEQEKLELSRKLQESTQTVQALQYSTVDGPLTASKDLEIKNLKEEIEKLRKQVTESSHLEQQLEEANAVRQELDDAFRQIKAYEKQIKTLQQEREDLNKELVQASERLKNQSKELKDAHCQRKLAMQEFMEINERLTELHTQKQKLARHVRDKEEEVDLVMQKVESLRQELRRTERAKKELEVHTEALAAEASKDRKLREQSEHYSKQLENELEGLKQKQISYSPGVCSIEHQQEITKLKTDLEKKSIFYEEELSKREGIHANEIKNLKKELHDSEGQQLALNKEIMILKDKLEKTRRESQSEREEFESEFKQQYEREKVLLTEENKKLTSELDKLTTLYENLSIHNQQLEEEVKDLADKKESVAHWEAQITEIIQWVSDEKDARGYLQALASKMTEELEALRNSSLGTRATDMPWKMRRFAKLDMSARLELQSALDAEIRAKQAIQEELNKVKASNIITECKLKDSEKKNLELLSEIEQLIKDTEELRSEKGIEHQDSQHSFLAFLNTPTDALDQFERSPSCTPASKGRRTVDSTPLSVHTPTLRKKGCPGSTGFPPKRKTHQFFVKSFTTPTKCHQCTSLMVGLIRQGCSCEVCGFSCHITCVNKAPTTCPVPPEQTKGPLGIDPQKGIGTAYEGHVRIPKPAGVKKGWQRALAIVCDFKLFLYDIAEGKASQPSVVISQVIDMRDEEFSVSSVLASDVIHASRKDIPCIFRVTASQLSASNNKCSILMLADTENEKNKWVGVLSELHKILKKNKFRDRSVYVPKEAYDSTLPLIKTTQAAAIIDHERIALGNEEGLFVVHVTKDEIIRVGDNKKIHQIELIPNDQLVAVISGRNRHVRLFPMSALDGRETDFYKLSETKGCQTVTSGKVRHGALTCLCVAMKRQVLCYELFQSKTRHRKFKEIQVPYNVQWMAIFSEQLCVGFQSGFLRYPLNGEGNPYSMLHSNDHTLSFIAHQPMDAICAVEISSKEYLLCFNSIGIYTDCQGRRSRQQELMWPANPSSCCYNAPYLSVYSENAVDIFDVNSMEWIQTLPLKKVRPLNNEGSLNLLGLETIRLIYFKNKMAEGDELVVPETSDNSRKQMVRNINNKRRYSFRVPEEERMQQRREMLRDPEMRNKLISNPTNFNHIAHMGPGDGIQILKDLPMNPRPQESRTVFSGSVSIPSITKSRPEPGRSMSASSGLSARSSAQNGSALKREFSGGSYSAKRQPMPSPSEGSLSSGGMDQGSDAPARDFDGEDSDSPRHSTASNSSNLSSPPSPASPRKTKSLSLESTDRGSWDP
# measurement-notes: MRCKα kinase assay (IMAP fluorescence polarization)
# Format: biochemical
# test-parameters: 1 μM ATP; read-out: MRCK-a Average Ki
pKi: −log10 of the molar value.
readout-label: pKi

compound	numeric-result
c1ncc(-c2c[nH]c3nccc(N4CCC[C@H](N5CCC5)C4)c23)cn1	8.28
CCN1CCCC[C@@]12CCCN(c1ccnc3[nH]cc(-c4ccncn4)c13)C2	10.56
c1cnnc(-c2c[nH]c3nccc(N4CCCC5(CCCCN5)C4)c23)c1 (centres unmarked)	9.59
CN1CCCC[C@@]12CCCN(c1ccnc3[nH]cc(-c4ccncn4)c13)C2	10.72
c1cc(N2CCC[C@@]3(CCCCN3)C2)c2c(-c3ncsn3)c[nH]c2n1	10.91
CCN1CCCCC12CCCN(c1ccnc3[nH]cc(-c4ncc(C)s4)c13)C2 (centres unmarked)	9.90
c1cc(N2CCCC3(CCCCN3)C2)c2c(-c3cnsc3)c[nH]c2n1 (centres unmarked)	10.17
Fc1cccnc1-c1c[nH]c2nccc(N3CCCC4(CCCCN4)C3)c12 (centres unmarked)	9.72
CN(C)c1ccnc2[nH]cc(C#N)c12	7.32
c1ncc(-c2c[nH]c3nccc(OC4CCCNCC4)c23)cn1 (centres unmarked)	8.95
CCN1CCCCC12CCCN(c1ccnc3[nH]cc(C#N)c13)C2 (centres unmarked)	9.20
Cc1cnc2[nH]cc(-c3cn[nH]c3)c2c1N1CCCCC1 [Example E2]	7.71
NCC1CCCN(c2ccnc3[nH]cc(-c4cncnc4)c23)C1 (centres unmarked)	8.34
FC1CCN([C@H]2CCCN(c3ccnc4[nH]cc(-c5cncnc5)c34)C2)C1 (some centres unmarked)	7.71
CN[C@H]1CCCN(c2ccnc3[nH]cc(-c4cncnc4)c23)C1	8.53
Fc1ccc(-c2c[nH]c3nccc(N4CCCC5(CCCCN5)C4)c23)nc1 (centres unmarked)	9.77
CN1CCCN(c2ccnc3[nH]cc(C#N)c23)CC1	7.89
c1ncc(-c2c[nH]c3nccc(N4CCC[C@H](N5CCCC5)C4)c23)cn1	8.24
c1ncc(-c2c[nH]c3nccc(N4CCC[C@H](N5CCCCC5)C4)c23)cn1	8.10
c1ncc(-c2c[nH]c3nccc(N4CCCC5(CCCCN5)C4)c23)cn1 (centres unmarked)	8.29
c1ncc(-c2c[nH]c3nccc(N4CCCC5(CCCNC5)C4)c23)cn1 (centres unmarked)	9.19
CN(C)[C@H]1CCCN(c2ccnc3[nH]cc(-c4cncnc4)c23)C1	7.76
c1ncc(-c2c[nH]c3nccc(OC[C@@H]4CCNC4)c23)cn1	8.60
CN[C@H]1CCCN(c2ccnc3[nH]cc(-c4nccs4)c23)C1	9.80
C[C@@H]1CCCN1c1ccnc2[nH]cc(C#N)c12	8.34
CN[C@H]1CCCN(c2ccnc3[nH]cc(-c4cc[nH]n4)c23)C1	9.32
CCN[C@H]1CCCN(c2ccnc3[nH]cc(-c4cnn(C)c4)c23)C1	8.46
Cc1cnc(-c2c[nH]c3nccc(N4CCC[C@@]5(CCCCN5)C4)c23)s1	10.31
Cc1cnc(-c2c[nH]c3nccc(N4CC[C@@]5(CCCCN5)C4)c23)s1	10.68
c1csc(-c2c[nH]c3nccc(O[C@@H]4CCCNC4)c23)n1	9.73
C[C@H]1CCCN1c1ccnc2[nH]cc(C#N)c12	6.91
Cn1cc(-c2c[nH]c3nccc(N4CCCC5(CCCCN5)C4)c23)cn1 (centres unmarked)	9.22

====

# assay-system: MRCKβ (Homo sapiens (Human), UniProt Q9Y5S2)
# measurement-notes: MRCKβ kinase assay (IMAP fluorescence polarization)
# Assay type: biochemical
# test-parameters: 1 μM ATP; read-out: MRCK-B Average Ki
# From the text: MRCKα, MRCKβ, ROCK1 and ROCK2 Kinase Assays
Response field label: string, one of 1.0 (Ki strictly below 4 nM) or 0.0.

molecule	assay-system	label
c1csc(-c2c[nH]c3nccc(O[C@@H]4CCCNC4)c23)n1 [Example E212]	MRCKβ (Homo sapiens (Human), UniProt Q9Y5S2)	1.0
c1ccc(-c2c[nH]c3nccc(N4CCCC5(CCCCN5)C4)c23)nc1 (stereo not drawn) [Example E138]	MRCKβ (Homo sapiens (Human), UniProt Q9Y5S2)	1.0
c1cc(-c2c[nH]c3nccc(N4CCC[C@H](NC5CC5)C4)c23)cnn1 [Example E46]	MRCKβ (Homo sapiens (Human), UniProt Q9Y5S2)	1.0
c1cc(N2CCC[C@@]3(CCCCN3)C2)c2c(-c3ncsn3)c[nH]c2n1 [Example E116]	MRCKβ (Homo sapiens (Human), UniProt Q9Y5S2)	1.0
c1ncc(-c2c[nH]c3nccc(N4CC[C@@]5(CCCN5)C4)c23)cn1 [Example E124]	MRCKβ (Homo sapiens (Human), UniProt Q9Y5S2)	1.0
OC1CCN([C@H]2CCCN(c3ccnc4[nH]cc(-c5cncnc5)c34)C2)CC1 [Example E92]	MRCKβ (Homo sapiens (Human), UniProt Q9Y5S2)	0.0
NCC1CCN(c2ccnc3[nH]cc(-c4cncnc4)c23)CC1 [Example E105]	MRCKβ (Homo sapiens (Human), UniProt Q9Y5S2)	1.0
CN[C@H]1CCCN(c2ccnc3[nH]cc(-c4cnc(C)nc4)c23)C1 [Example E75]	MRCKβ (Homo sapiens (Human), UniProt Q9Y5S2)	0.0
c1cc(-c2c[nH]c3nccc(N4CCCC5(CCCCN5)C4)c23)cnn1 (stereo not drawn) [Example E172]	MRCKβ (Homo sapiens (Human), UniProt Q9Y5S2)	1.0
C[C@@H]1CCCN1c1ccnc2[nH]cc(C#N)c12 [Example E110]	MRCKβ (Homo sapiens (Human), UniProt Q9Y5S2)	1.0
CN[C@H]1CCCN(c2ccnc3[nH]cc(-c4cncc(F)c4)c23)C1 [Example E50]	MRCKβ (Homo sapiens (Human), UniProt Q9Y5S2)	1.0
Cc1nccc(-c2c[nH]c3nccc(N4CCCC5(CCCCN5)C4)c23)n1 (stereo not drawn) [Example E160]	MRCKβ (Homo sapiens (Human), UniProt Q9Y5S2)	1.0
CN[C@H]1CCCN(c2ccnc3[nH]cc(C#N)c23)C1 [Example E74]	MRCKβ (Homo sapiens (Human), UniProt Q9Y5S2)	0.0
c1cc(-c2c[nH]c3nccc(N4CCC5(CCNC5)C4)c23)cnn1 (stereo not drawn) [Example E164]	MRCKβ (Homo sapiens (Human), UniProt Q9Y5S2)	1.0
c1cc(N2CCCC3(CCCCN3)C2)c2c(-c3cnsc3)c[nH]c2n1 (stereo not drawn) [Example E114]	MRCKβ (Homo sapiens (Human), UniProt Q9Y5S2)	1.0
c1ccc(-c2c[nH]c3nccc(N4CCC5(CCCCN5)C4)c23)nc1 (stereo not drawn) [Example E141]	MRCKβ (Homo sapiens (Human), UniProt Q9Y5S2)	1.0
CCn1cc(-c2c[nH]c3nccc(N4CCCCC4)c23)cn1 [Example E21]	MRCKβ (Homo sapiens (Human), UniProt Q9Y5S2)	0.0
c1cnc(-c2c[nH]c3nccc(N4CCCC5(CCCCN5)C4)c23)nc1 (stereo not drawn) [Example E157]	MRCKβ (Homo sapiens (Human), UniProt Q9Y5S2)	1.0
N#Cc1c[nH]c2nccc(N3CCC[C@H]3COc3ccccc3)c12 [Example E40]	MRCKβ (Homo sapiens (Human), UniProt Q9Y5S2)	0.0
Cc1csnc1-c1c[nH]c2nccc(N3CCCC4(CCCCN4)C3)c12 (stereo not drawn) [Example E142]	MRCKβ (Homo sapiens (Human), UniProt Q9Y5S2)	1.0
c1ncc(-c2c[nH]c3nccc(N4CCC5(CCCNC5)CC4)c23)cn1 [Example E193]	MRCKβ (Homo sapiens (Human), UniProt Q9Y5S2)	1.0
CN1CC[C@H]2CN(c3ccnc4[nH]cc(-c5cncnc5)c34)CC[C@H]21 [Example E200]	MRCKβ (Homo sapiens (Human), UniProt Q9Y5S2)	1.0
CN1CCCN(c2ccnc3[nH]cc(C#N)c23)CC1 [Example E30]	MRCKβ (Homo sapiens (Human), UniProt Q9Y5S2)	0.0
CN[C@H]1CCCN(c2ccnc3[nH]cc(-c4cc[nH]n4)c23)C1 [Example E83]	MRCKβ (Homo sapiens (Human), UniProt Q9Y5S2)	1.0
CN[C@H]1CCCN(c2ccnc3[nH]cc(-c4cncnc4)c23)[C@H]1C (relative stereo) [Example E179]	MRCKβ (Homo sapiens (Human), UniProt Q9Y5S2)	0.0
c1ncc(-c2c[nH]c3nccc(N4CCCC5(CCCCN5)C4)c23)cn1 (stereo not drawn) [Example E196]	MRCKβ (Homo sapiens (Human), UniProt Q9Y5S2)	0.0
